The reported measurements were obtained from patent US11446287B2.

Property: IC50; scope: individual compounds
study.system: Recombinant human EP300 containing the bromodomain (EP300-BD (1040-1161)) (Homo sapiens, UniProt Q09472)
Construct: Recombinant human EP300 bromodomain (EP300-BD (1040-1161))
Sequence (Q09472 1040-1161): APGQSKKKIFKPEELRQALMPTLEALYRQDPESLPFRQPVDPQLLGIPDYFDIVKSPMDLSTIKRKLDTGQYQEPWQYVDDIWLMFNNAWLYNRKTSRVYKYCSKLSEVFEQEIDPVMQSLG
procedure.text: EP300 Alphascreen binding assay

Previously resolved entries follow.
compound: Cc1noc(C)c1-c1cnc2c(CC3CCC3)cn(-c3c(C(=O)O)ccc(Br)c3F)c2c1
IC50: 0.0001 to 1 µM

compound: COc1cc(C(=O)O)cc(OCc2ccccc2)c1-c1cn([C@@H](C)c2ccccn2)c2ncc(-c3c(C)noc3C)cc12
IC50: 0.0001 to 1 µM

compound: COc1ccc(-n2cc(-c3ccc(C(=O)O)cc3OC(F)(F)F)c3cc(-c4c(C)noc4C)cnc32)c(F)c1
IC50: 0.0001 to 1 µM

compound: Cc1noc(C)c1-c1cnc2c(c1)c(-c1ccncc1)cn2C(c1ccccn1)C1CCCC1 (stereo not shown)
IC50: 1 to 8 µM

compound: Cc1noc(C)c1-c1cnc2c(c1)c(-c1ccccc1)cn2C(c1ccccn1)C1CCCC1 (stereo not shown)
IC50: 8 to 1000 µM

compound: Cc1noc(C)c1-c1cnc2c(-c3cn(C)nc3C3CC3)c(C(F)(F)F)n([C@@H](C)c3ccccn3)c2c1
IC50: 0.0001 to 1 µM

-- ask Reported IC50 for CCOc1cc(C(=O)O)nc(OCC)c1-c1cn(-c2cn(C(F)F)nc2C)c2ncc(-c3c(C)noc3C)cc12 : what is it?
-- reply 0.0001 to 1 µM

-- ask Reported IC50 for COc1c(-n2cc(CC3CCC3)c3ncc(-c4c(C)noc4C)cc32)ccc(C(=O)O)c1F : what is it?
-- reply 0.0001 to 1 µM

-- ask Reported IC50 for COc1cc(-c2c(C(F)(F)F)n([C@@H](C)c3ccccn3)c3cc(-c4c(C)noc4C)cnc23)ccc1C(=O)O : what is it?
-- reply 1 to 8 µM

-- ask Reported IC50 for Cc1noc(C)c1-c1cnc2c(c1)c(-c1c(Cl)cc(C(=O)O)cc1OC(C)C)cn2-c1cnc(C2CC2)nc1 : what is it?
-- reply 0.0001 to 1 µM

-- ask Reported IC50 for Cc1noc(C)c1-c1cnc2c(c1)c(-c1c(Cl)cc(C(=O)O)cc1OC(F)(F)F)cn2-c1cnc(C2CC2)nc1 : what is it?
-- reply 0.0001 to 1 µM

-- ask Reported IC50 for Cc1noc(C)c1-c1cnc2c(c1)c(-c1ccc(C(=O)O)cc1OC(F)F)cn2-c1ccccc1 : what is it?
-- reply 0.0001 to 1 µM
